- MEASURED_ON: IRAK4 (Homo sapiens, UniProt Q9NWZ3)
- Construct: endogenous in cells; host or cells: Karpas299
- Sequence (Q9NWZ3 whole entry): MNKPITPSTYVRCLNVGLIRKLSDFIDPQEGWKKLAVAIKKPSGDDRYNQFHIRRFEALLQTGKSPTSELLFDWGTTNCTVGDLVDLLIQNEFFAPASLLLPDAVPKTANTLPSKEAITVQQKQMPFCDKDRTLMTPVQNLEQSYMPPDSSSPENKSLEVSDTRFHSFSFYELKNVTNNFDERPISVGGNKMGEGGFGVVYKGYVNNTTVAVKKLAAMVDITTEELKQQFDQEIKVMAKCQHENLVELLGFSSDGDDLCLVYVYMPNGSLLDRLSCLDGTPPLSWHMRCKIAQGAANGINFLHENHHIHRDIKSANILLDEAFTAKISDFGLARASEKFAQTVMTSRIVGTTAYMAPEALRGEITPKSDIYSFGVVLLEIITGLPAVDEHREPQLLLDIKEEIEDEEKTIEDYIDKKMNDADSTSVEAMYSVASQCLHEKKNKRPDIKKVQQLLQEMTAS
- ASSAY: IRAK4 Degradation Assay (Karpas299, HTRF/TR-FRET)
- Type: cell-based
- TEST_PARAMETERS: Karpas-299 cells, 24 h treatment; read-out: IRAK4 in Karpas-299 (24 h) DC50
Parameter: log10(DC50). Scope: all listed entries.
QUANTITY: log10(DC50) (log10 of the value in pM)

{"MOLECULE": "O=C1CC[C@H](c2c(F)cc(N3CC(CN4CCN([C@H]5CC[C@H](n6cc(NC(=O)c7csc(-c8cn[nH]c8)n7)c(C(F)F)n6)CC5)CC4)C3)cc2F)C(=O)N1 [Example 435]", "EXPERIMENTAL_RESULT": 2.60}
{"MOLECULE": "COC[C@H]1CN(C(=O)C2CN(c3cc(F)c([C@H]4CCC(=O)NC4=O)c(F)c3)C2)CCN1[C@H]1CC[C@H](n2cc3cc(NC(=O)c4ccc5cc(C#N)cnn45)c(C(C)(C)O)cc3n2)CC1 [Example 184]", "EXPERIMENTAL_RESULT": 2.85}
{"MOLECULE": "CC(C)(O)c1cc2nn([C@H]3CC[C@H](N4CCN(C5CCN(c6cc(F)c([C@H]7CCC(=O)NC7=O)c(F)c6)CC5)CC4)CC3)cc2cc1NC(=O)c1coc2cccnc12 [Example 405]", "EXPERIMENTAL_RESULT": 2.95}
{"MOLECULE": "CC(C)(O)c1cc2nn([C@H]3CC[C@H](N4CCN(C5CCN(c6cc(F)c(N7CCC(=O)NC7=O)c(F)c6)CC5)CC4)CC3)cc2cc1NC(=O)c1ccc2cc(C#N)cnn12 [Example 293]", "EXPERIMENTAL_RESULT": 3.97}
{"MOLECULE": "CC(C)(O)c1cc2nn([C@H]3CC[C@H](N4CCN(C5CCN(c6cc(F)c(C7CCC(=O)NC7=O)c(F)c6)CC5)CC4)CC3)cc2cc1NC(=O)c1ccc2cc(C#N)cnn12 (stereo partly shown) [Example 196]", "EXPERIMENTAL_RESULT": 2.78}
{"MOLECULE": "C[C@H]1CN([C@H]2CC[C@H](n3cc4cc(NC(=O)c5ccc6cc(C#N)cnn56)c(C(C)(C)O)cc4n3)CC2)CCN1C(=O)C1CN(c2cc(F)c([C@H]3CCC(=O)NC3=O)c(F)c2)C1 [Example 311]", "EXPERIMENTAL_RESULT": 2.90}
{"MOLECULE": "[2H]C([2H])([2H])Oc1cc2nn([C@H]3CC[C@H](N4CCN(C(=O)[C@@H]5CCN(c6cc(F)c([C@H]7CCC(=O)NC7=O)c(F)c6)C5)CC4)CC3)cc2cc1NC(=O)c1cccc(C(F)(F)F)n1 [Example 169]", "EXPERIMENTAL_RESULT": 3.63}
